B1: RSPH3 (parent)
chain: LELQRQREARKRALARKQAQEQLR

Variants of: B1
Assay: protein stability index of a GFP-peptide fusion (GPS, HEK-293T) (PSI 1-6); higher = more stable;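 further: lentivirally expressed fusions sorted by FACS into six bins by GFP to DsRed ratio, PSI derived from sequencing read proportions per bin multiplied by bin number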
Conditions: c terminus: a fixed tail appended
Values of protein stability index greater than or equal to 4 map to 1; values below map to -1.

Input: In plain terms: is recorded protein stability index at least 4 for `A15Y` ?
Output: -1

Input: Would you say `Q20A` shows protein stability index at minimum 4?
Output: -1

These entries and their values trace back to the supplement of paper PMC10567573.
